FYI, the data here is from ChEMBL document CHEMBL2331252.

Exercise: state measured inhibition zone (IZ) for each of the molecules provided.
system: Micrococcus luteus; assay: Antibacterial activity against Micrococcus luteus MTCC 106 at 1 mg/disc after 24 hrs by disc diffusion method; format: functional
Please respond with the number in mm and leave the unit unwritten.

Tell me measured inhibition zone (IZ) for CN1C(=O)[C@@]2(c3cc(Cl)ccc31)N(C)C[C@](C#N)(C(=O)c1c[nH]c3ccccc13)[C@]21C(=O)Nc2ccccc21 please.
12

Tell me measured inhibition zone (IZ) for CN1C(=O)[C@@]2(c3cc(Br)ccc31)N(C)C[C@](C#N)(C(=O)c1c[nH]c3ccccc13)[C@]21C(=O)Nc2ccccc21 please.
11

Tell me measured inhibition zone (IZ) for CCN1C(=O)[C@@]2(c3ccccc31)N(C)C[C@](C#N)(C(=O)c1c[nH]c3ccccc13)[C@]21C(=O)Nc2ccccc21 please.
11

Tell me measured inhibition zone (IZ) for CCCCCCN1C(=O)[C@@]2(c3ccccc31)N(C)C[C@](C#N)(C(=O)c1c[nH]c3ccccc13)[C@]21C(=O)Nc2ccccc21 please.
10

Tell me measured inhibition zone (IZ) for CN1C(=O)[C@@]2(c3cc(F)ccc31)N(C)C[C@](C#N)(C(=O)c1c[nH]c3ccccc13)[C@]21C(=O)Nc2ccccc21 please.
10

Tell me measured inhibition zone (IZ) for CN1C[C@](C#N)(C(=O)c2c[nH]c3ccccc23)[C@]2(C(=O)Nc3ccccc32)[C@@]12C(=O)N(Cc1ccccc1)c1ccccc12 please.
9

Tell me measured inhibition zone (IZ) for Cc1ccc2c(c1)[C@]1(C(=O)N2C)N(C)C[C@](C#N)(C(=O)c2c[nH]c3ccccc23)[C@]12C(=O)Nc1ccccc12 please.
10

Tell me measured inhibition zone (IZ) for CCCCN1C(=O)[C@@]2(c3ccccc31)N(C)C[C@](C#N)(C(=O)c1c[nH]c3ccccc13)[C@]21C(=O)Nc2ccccc21 please.
8

Tell me measured inhibition zone (IZ) for CN1C[C@](C#N)(C(=O)c2c[nH]c3ccccc23)[C@]2(C(=O)Nc3ccccc32)[C@@]12C(=O)Nc1ccc(Br)cc12 please.
9

Tell me measured inhibition zone (IZ) for CN1C[C@](C#N)(C(=O)c2c[nH]c3ccccc23)[C@]2(C(=O)Nc3ccccc32)[C@@]12C(=O)Nc1ccc(Cl)cc12 please.
10

Tell me measured inhibition zone (IZ) for CN[C@@H]1[C@H](O[C@H]2[C@H](O[C@H]3[C@H](O)[C@@H](O)[C@H](N=C(N)N)[C@@H](O)[C@@H]3N=C(N)N)O[C@@H](C)[C@]2(O)C=O)O[C@@H](CO)[C@H](O)[C@H]1O please.
26

Tell me measured inhibition zone (IZ) for C=CCN1C(=O)[C@@]2(c3ccccc31)N(C)C[C@](C#N)(C(=O)c1c[nH]c3ccccc13)[C@]21C(=O)Nc2ccccc21 please.
10

Tell me measured inhibition zone (IZ) for Cc1ccc2c(c1)[C@]1(C(=O)N2)N(C)C[C@](C#N)(C(=O)c2c[nH]c3ccccc23)[C@]12C(=O)Nc1ccccc12 please.
10

Tell me measured inhibition zone (IZ) for CN1C[C@](C#N)(C(=O)c2c[nH]c3ccccc23)[C@]2(C(=O)Nc3ccccc32)C12C(=O)c1cccc3cccc2c13 (stereo not given in full) please.
9

Tell me measured inhibition zone (IZ) for CN1C[C@](C#N)(C(=O)c2c[nH]c3ccccc23)[C@]2(C(=O)Nc3ccccc32)[C@@]12C(=O)Nc1ccc(F)cc12 please.
9

Tell me measured inhibition zone (IZ) for CN1C[C@](C#N)(C(=O)c2c[nH]c3ccccc23)[C@]2(C(=O)Nc3ccccc32)[C@@]12C(=O)Nc1ccccc12 please.
9

Tell me measured inhibition zone (IZ) for CN1C(=O)[C@@]2(c3ccccc31)N(C)C[C@](C#N)(C(=O)c1c[nH]c3ccccc13)[C@]21C(=O)Nc2ccccc21 please.
11

Tell me measured inhibition zone (IZ) for CN1C(=O)[C@@]2(c3cc([N+](=O)[O-])ccc31)N(C)C[C@](C#N)(C(=O)c1c[nH]c3ccccc13)[C@]21C(=O)Nc2ccccc21 please.
7

Tell me measured inhibition zone (IZ) for CN1C[C@](C#N)(C(=O)c2c[nH]c3ccccc23)[C@]2(C(=O)Nc3ccccc32)[C@@]12C(=O)Nc1ccc(I)cc12 please.
8

Tell me measured inhibition zone (IZ) for CN1C(=O)[C@@]2(c3cc(I)ccc31)N(C)C[C@](C#N)(C(=O)c1c[nH]c3ccccc13)[C@]21C(=O)Nc2ccccc21 please.
11
